Measured pKd, listed per entry.
# tgt: T1, 14-3-3η (human, UniProt Q04917 1-246)
# T1 construct: 14-3-3 protein eta, human; also called 14-3-3 protein (eta isoform); 14-3-3η dimer
# T1 sequence: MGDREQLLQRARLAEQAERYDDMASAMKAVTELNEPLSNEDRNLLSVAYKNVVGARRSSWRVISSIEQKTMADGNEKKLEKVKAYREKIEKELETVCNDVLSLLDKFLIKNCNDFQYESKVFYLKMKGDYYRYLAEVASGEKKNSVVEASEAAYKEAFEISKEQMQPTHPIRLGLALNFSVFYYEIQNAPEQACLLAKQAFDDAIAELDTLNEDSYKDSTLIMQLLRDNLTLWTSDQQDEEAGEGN
# assay explanation: AUC; sedimentation velocity, 20 °C, 20 mM Tris-HCl pH 7.5, 150 mM NaCl, 1 mM TCEP; 1 μM 14-3-3η with Nedd4-2^335–455 variants (0.05 – 5 μM); apparent KD, sw isotherm fitted with A + B ⇌ AB, 14-3-3η dimer + one Nedd4-2 molecule
# run conditions: both partners purified
Friendly reminder that pKd comes from taking -log10 of the concentration in mol/L.

Nedd^335-455pS342 (domain or fragment, human, UniProt Q96PU5 335-455, looked up, phosphoserine at 342, source: E. coli BL21 (DE3), purified (Chelating Sepharose, TEV cleavage, Superdex 75), phosphorylated by PKA in vitro; not shown: His6, N-terminal, cleaved; GB1 domain of protein G, N-terminal, cleaved) SSRLRSCSVTDAVAEQGHLPPPSAPAGRARSSAVTGGEEPTPSVAYVHTTPGLPSGWEERKDAKGRTYYVNHNNRTTTWTRPIMQLAEDGASGSATNSNNHLIEPQIRRPRSLASPTVTLS | 6.40

Moving on to the next binder.
Task: Retrieve pKd measured for Nedd^335-455pT367 (domain or fragment, human, UniProt Q96PU5 335-455, looked up, phosphothreonine at 367, source: E. coli BL21 (DE3), purified (Chelating Sepharose, TEV cleavage, Superdex 75), phosphorylated by PKA in vitro; not shown: His6, N-terminal, cleaved; GB1 domain of protein G, N-terminal, cleaved) SSRLRSCAVTDAVAEQGHLPPPSAPAGRARSSTVTGGEEPTPSVAYVHTTPGLPSGWEERKDAKGRTYYVNHNNRTTTWTRPIMQLAEDGASGSATNSNNHLIEPQIRRPRSLASPTVTLS and print it.
Result: 6.28
